Some molecules, each annotated with its measured cell number.
System: TDF;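 note: TDF denotes transformed human dermal fibroblasts of mesenchymal origin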
measurement_protocol: cell number relative to DMSO (% of DMSO); higher = more cells (less growth inhibition / toxicity)
test_conditions: concentration: 10 µM; 24 h
Answer with a bare number; do not write a unit.

Consider the reported cell number for these molecules:
COc1cc2c(cc1OC)-c1cc3ccc(OC)c(OC)c3c[n+]1CC2.[Cl-] [Palmatine chloride] = 108
COC1(NC(=O)CSCC#N)C(=O)N2C(C(=O)[O-])=C(CSc3nnnn3C)CSC21.[Na+] (stereo not drawn) [Cefmetazole sodium] = 110
COC(=O)C(=C1OC(=O)C(c2ccccc2)=C1O)c1ccccc1 [Vulpinic acid] = 95.3
N#CC(=Cc1ccc(O)c(O)c1)C(=O)NCCCNC(=O)C(C#N)=Cc1ccc(O)c(O)c1 [Tyrphostin AG 537] = 101

Would you kindly look at the next entry?
I would be grateful if you could share the reported cell number for Cc1cccc2c3c(ccc12)C1=C(C(=O)C3=O)C(C)CO1 (stereo not drawn) [Dihydrotanshinone] .
33.6
